Collected from the literature: Ki of various compounds toward Melanocortin receptor 3 (Homo sapiens, UniProt P41968).
One number for each entry, in nM.

Sample records with Ki:
CC(C)[C@H](NC(=O)[C@@H](N)Cc1ccc(O)cc1)C(=O)N[C@@H]1C(=O)NCC(=O)N[C@@H](Cc2cnc[nH]2)C(=O)N[C@@H](Cc2ccccc2)C(=O)N[C@@H](CCCNC(=N)N)C(=O)N[C@@H](Cc2c[nH]c3ccccc23)C(=O)N[C@H](C(=O)N[C@@H](CCCNC(=N)N)C(=O)N[C@@H](Cc2ccccc2)C(=O)NCC(N)=O)CSSC1(C)C; 150
NCCC(=O)N[C@H](Cc1ccc(Cl)cc1)C(=O)N1CCN(c2ccccc2CNCCc2cccs2)CC1; 1000
Cc1ccc([C@@H](CC(C)C)NC(=O)CCN(C)C)c(N2CCN(C(=O)[C@H](C)Cc3ccc(Cl)cc3Cl)CC2)n1; 3300

For the next question, use this compound.
Prompt: Tell me reported Ki for NC(=O)[C@H](Cc1c[nH]c2ccccc12)NC(=O)[C@H](CCCN=C(N)N)NC(=O)[C@@H](Cc1ccccc1)NC(=O)[C@H](Cc1cnc[nH]1)NC(=O)CCCc1ccccc1 , tested with Melanocortin receptor 3 (Homo sapiens, UniProt P41968).
Sequence (P41968 whole entry): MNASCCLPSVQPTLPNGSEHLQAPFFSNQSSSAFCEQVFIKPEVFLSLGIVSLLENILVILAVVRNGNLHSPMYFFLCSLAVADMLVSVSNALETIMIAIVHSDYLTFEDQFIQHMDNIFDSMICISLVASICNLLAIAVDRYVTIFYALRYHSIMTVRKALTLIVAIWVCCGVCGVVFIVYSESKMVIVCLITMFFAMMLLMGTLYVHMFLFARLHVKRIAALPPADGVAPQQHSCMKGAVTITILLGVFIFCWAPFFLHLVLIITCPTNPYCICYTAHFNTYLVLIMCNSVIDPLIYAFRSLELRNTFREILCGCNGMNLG
Completion: 13.5

---

Collected from the literature: Ki of various compounds toward Melanocortin receptor 3 (Homo sapiens, UniProt P41968).
One number for each entry, in nM.

O=C(N[C@H](Cc1ccc(Cl)cc1)C(=O)N1CCN(c2ccccc2CNCCc2cccs2)CC1)C1CCCNC1 (stereo not given in full); 1400
CCCC[C@H](NC(=O)[C@@H](NC(=O)[C@@H](N)Cc1ccc(O)cc1)C(C)C)C(=O)NCC(=O)N[C@@H](Cc1c[nH]cn1)C(=O)N[C@H](Cc1ccc2ccccc2c1)C(=O)N[C@@H](CCCN=C(N)N)C(=O)N[C@@H](Cc1c[nH]c2ccccc12)C(=O)N[C@@H](CC(=O)O)C(=O)N[C@@H](CCCN=C(N)N)C(=O)N[C@@H](Cc1ccccc1)C(=O)NCC(N)=O; 0.81
CC(=O)N[C@H](CCCNC(=N)N)C(=O)N[C@H]1CSSC[C@@H](C(N)=O)NC(=O)[C@H](Cc2c[nH]c3ccccc23)NC(=O)[C@H](CCCNC(=N)N)NC(=O)[C@@H](Cc2ccccc2)NC(=O)[C@H](Cc2c[nH]cn2)NC(=O)[C@H](CCC(=O)O)NC1=O; 56.8
NC(N)=NCCC[C@H](Cc1ccccc1)NC(=O)[C@H](N)Cc1ccc(F)cc1; 3500

For the next question, use this compound.
Prompt: Param item = NC(=O)C[C@H](N)C(=O)N[C@H](Cc1ccccc1)C(=O)N1C[C@@H](OCc2ccc3ccccc3c2)C[C@H]1CCCN=C(N)N ; retrieve measured Ki.
Completion: 29100

---

Collected from the literature: Ki of various compounds toward Melanocortin receptor 3 (Homo sapiens, UniProt P41968).
One number for each entry, in nM.

Sample records with Ki:
CC(C)(N)C/N=C(\Nc1ccc(C(=O)NCCc2ccc(Cl)cc2Cl)cc1)NC1CCCCC1; 2400
CCN(CC)CC(c1ccccc1F)N1CCN(C(=O)[C@@H](Cc2ccc(Cl)cc2)NC(=O)C2Cc3ccccc3C(C)(C)N2)CC1 (stereo partly specified); 1900
N#CCC(=O)N[C@@H](Cc1c[nH]cn1)C(=O)N[C@@H](Cc1ccccc1)C(=O)N[C@@H](CCCNC(=N)N)C(=O)N[C@@H](Cc1c[nH]c2ccccc12)C(N)=O; 350
N=C(N)NCCC[C@H]1C[C@H](OCc2ccc3ccccc3c2)CN1C(=O)[C@@H](Cc1ccccc1)NC(=O)[C@@H]1CCCCN1; 1260

Okay, here is my list. What is Ki for each of these?
1. O=C(N[C@H](Cc1ccc(Cl)cc1)C(=O)N1CCN(c2ccccc2CNCCc2ccccc2F)CC1)[C@H]1Cc2ccccc2CN1
2. N=C(N)NCCC[C@H](NC(=O)[C@H](Cc1ccccc1)NC(=O)[C@H](Cc1cnc[nH]1)NC(=O)C1CC1)C(=O)N[C@@H](Cc1c[nH]c2ccccc12)C(N)=O
3. CC(=O)N[C@@H](Cc1ccc(O)cc1)C(=O)N[C@H](Cc1ccccc1)C(=O)N1C[C@H](OCc2ccc3ccccc3c2)C[C@H]1CCCN=C(N)N
4. O=C(N[C@H](Cc1ccc(Cl)cc1)C(=O)N1CCN(c2ccccc2)CC1)C1Cc2ccccc2CN1 (stereo partly specified)
5. CC(=O)N[C@@H](Cc1ccc(O)cc1)C(=O)N[C@H](Cc1ccccc1)C(=O)N1C[C@@H](OCc2ccc3ccccc3c2)C[C@H]1CCCN=C(N)N
6. CCCC(=O)N[C@@H](Cc1cnc[nH]1)C(=O)N[C@@H](Cc1ccccc1)C(=O)N[C@@H](CCCNC(=N)N)C(=O)N[C@@H](Cc1c[nH]c2ccccc12)C(N)=O
7. CNCC(=O)N[C@H](Cc1ccc(Cl)cc1Cl)C(=O)N1CCN(c2ccccc2C(O)CC(C)C)CC1 (stereo partly specified)
8. CNC(=O)[C@H](Cc1ccc2ccccc2c1)N1CCN(C(=O)[C@H](N)Cc2ccccc2)[C@@H](CCCN=C(N)N)C1=O

Completion:
[2300, 210, 19200, 15000, 2880, 580, 2500, 239]
